target: UniProt P41594; experiment: Antagonist activity at human metabotropic glutamate receptor 5 expressed in HEK293 cells assessed as inhibition of glutamate-induced Ca2+ internalization after 1 hr by fluo-4-AM dye based fluorescence assay; format: functional, cell-based
Sequence (P41594 21-1212 limits assumed): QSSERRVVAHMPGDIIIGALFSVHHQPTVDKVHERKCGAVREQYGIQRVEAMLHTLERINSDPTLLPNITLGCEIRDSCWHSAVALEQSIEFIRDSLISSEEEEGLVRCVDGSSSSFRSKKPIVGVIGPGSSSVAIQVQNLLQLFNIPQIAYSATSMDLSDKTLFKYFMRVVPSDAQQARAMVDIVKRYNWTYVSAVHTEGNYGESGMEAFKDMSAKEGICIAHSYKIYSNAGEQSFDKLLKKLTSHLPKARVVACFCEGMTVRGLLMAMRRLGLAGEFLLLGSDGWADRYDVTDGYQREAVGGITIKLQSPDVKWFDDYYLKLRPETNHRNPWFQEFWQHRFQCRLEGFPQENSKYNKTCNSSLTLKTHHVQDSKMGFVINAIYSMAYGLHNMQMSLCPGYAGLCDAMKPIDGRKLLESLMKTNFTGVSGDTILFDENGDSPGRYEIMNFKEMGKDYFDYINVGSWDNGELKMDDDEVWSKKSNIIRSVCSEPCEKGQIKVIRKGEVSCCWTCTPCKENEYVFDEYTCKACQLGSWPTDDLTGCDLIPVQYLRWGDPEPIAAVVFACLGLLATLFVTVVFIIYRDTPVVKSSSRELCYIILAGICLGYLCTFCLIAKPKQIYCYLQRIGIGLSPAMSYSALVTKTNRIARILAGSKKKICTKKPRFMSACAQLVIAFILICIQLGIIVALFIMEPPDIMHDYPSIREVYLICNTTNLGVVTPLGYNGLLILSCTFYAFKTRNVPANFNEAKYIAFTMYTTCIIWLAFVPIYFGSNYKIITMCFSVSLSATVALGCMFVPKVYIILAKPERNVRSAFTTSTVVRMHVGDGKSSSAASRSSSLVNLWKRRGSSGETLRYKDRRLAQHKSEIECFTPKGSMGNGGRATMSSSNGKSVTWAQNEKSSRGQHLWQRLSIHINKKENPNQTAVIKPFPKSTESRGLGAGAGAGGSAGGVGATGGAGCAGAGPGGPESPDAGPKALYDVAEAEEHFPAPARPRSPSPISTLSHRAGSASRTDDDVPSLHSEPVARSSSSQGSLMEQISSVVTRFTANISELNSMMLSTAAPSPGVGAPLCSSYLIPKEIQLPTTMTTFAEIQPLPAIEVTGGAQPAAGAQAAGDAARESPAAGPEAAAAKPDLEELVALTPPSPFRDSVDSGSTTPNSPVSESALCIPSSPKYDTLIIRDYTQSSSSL
Activity calls are given as the source filed them. The calls are words filed in the database; no cut-off is given here.
property: inhibition

• O[C@H]1CC[C@H](Nc2ccc(-c3ccn4c(CC(F)(F)F)nnc4c3Cl)cc2Cl)CC1 = inactive
• Fc1cc(-c2ccn3c(CC4CC4)nnc3c2Cl)ccc1NC1CC1 = inactive
• FC(F)(F)c1c(-c2ccc(OC3CCOCC3)c(Cl)c2)ccn2c(CC3CC3)nnc12 = inactive
• Cc1ccc(Oc2ccc(-c3ccn4c(CC5CC5)nnc4c3Cl)cc2Cl)c(C)n1 = inactive
